- System: NCI-H226
- protocol-text: Cell growth inhibition test (CellTiter-Glo Luminescent Cell Viability), NCI-H226
- Format: cell-based
- measurement-parameters: Homo sapiens; NCI-H226 cells, CellTiter-Glo; read-out: growth IC50 H226
Below, each entry is listed alongside its reported IC50.
Report the value in µM with no unit label.

Please review the following examples before continuing.
• C=CC(=O)N1CCc2c(ccc(Nc3ccc(F)cc3)c2-c2cn(C)cn2)C1 [Example 10] = 0.1
• C=CC(=O)N1CCc2c(ccc(Nc3ccc(C(F)(F)F)cc3)c2-c2cn3c(n2)CCC3)C1 [Example 7] = 0.0378
• C=CC(=O)N1CCc2c(ccc(Nc3cccc(C(F)(F)F)c3)c2-c2cn(C)cn2)C1 [Example 20] = 0.139

Next up:
Supply reported IC50 belonging to this molecule: C=CC(=O)N1CCc2c(ccc(Nc3ccc(C(F)(F)F)cc3)c2-c2cn(CC)cn2)C1 [Example 24] 0.08

====

- Tested on: NCI-H226
- protocol-text: Cell growth inhibition test (CellTiter-Glo Luminescent Cell Viability), NCI-H226
- Assay type: cell-based
- measurement-parameters: Homo sapiens; NCI-H226 cells, CellTiter-Glo; read-out: growth IC50 H226
quantity-kind: IC50 (nM)
Report the value in nM with no unit label.

- C=CC(=O)N1CCc2c(ccc(Nc3cc(F)cc(F)c3)c2-c2cn(C)cn2)C1: 55.3

Supply reported IC50 belonging to this molecule: C=CC(=O)N1CCc2c(ccc(Nc3cc(F)c(C(F)(F)F)c(F)c3)c2-c2cn(C)cn2)C1 9.6

Supply reported IC50 belonging to this molecule: C=CC(=O)N1CCc2c(ccc(Nc3cc(F)c(F)c(F)c3)c2-c2cn(C)cn2)C1 16.6

Supply reported IC50 belonging to this molecule: C=CC(=O)N1CCc2c(ccc(Nc3ccc(C(F)(F)F)cc3)c2-c2cn(C)cn2)C1 9.8

====

- Tested on: NCI-H226
- protocol-text: Cell growth inhibition test (CellTiter-Glo Luminescent Cell Viability), NCI-H226
- Assay type: cell-based
- measurement-parameters: Homo sapiens; NCI-H226 cells, CellTiter-Glo; read-out: growth IC50 H226
quantity-kind: IC50 (nM)
Report the value in nM with no unit label.

Supply reported IC50 belonging to this compound: C=CC(=O)N1Cc2ccc(Nc3ccc(C(F)(F)F)cc3)c(-c3cn(C)cn3)c2C1 119

Supply reported IC50 belonging to this compound: C=CC(=O)N1CCc2c(ccc(Nc3ccc(C(F)(F)F)c(F)c3)c2-c2cn(C)cn2)C1 36

Supply reported IC50 belonging to this compound: C=CC(=O)N1CCc2c(ccc(Nc3cc(Cl)cc(Cl)c3)c2-c2cn(C)cn2)C1 95

Supply reported IC50 belonging to this compound: CNS(=O)(=O)N1Cc2cc(Nc3ccc(C(F)(F)F)cc3)c(-c3cn(C)cn3)cc2C1 89.8

Origin of the recorded values: patent EP4786465A1
